Measurement Target: ALK tyrosine kinase receptor (Homo sapiens, UniProt Q9UM73)
Sequence (Q9UM73 whole entry): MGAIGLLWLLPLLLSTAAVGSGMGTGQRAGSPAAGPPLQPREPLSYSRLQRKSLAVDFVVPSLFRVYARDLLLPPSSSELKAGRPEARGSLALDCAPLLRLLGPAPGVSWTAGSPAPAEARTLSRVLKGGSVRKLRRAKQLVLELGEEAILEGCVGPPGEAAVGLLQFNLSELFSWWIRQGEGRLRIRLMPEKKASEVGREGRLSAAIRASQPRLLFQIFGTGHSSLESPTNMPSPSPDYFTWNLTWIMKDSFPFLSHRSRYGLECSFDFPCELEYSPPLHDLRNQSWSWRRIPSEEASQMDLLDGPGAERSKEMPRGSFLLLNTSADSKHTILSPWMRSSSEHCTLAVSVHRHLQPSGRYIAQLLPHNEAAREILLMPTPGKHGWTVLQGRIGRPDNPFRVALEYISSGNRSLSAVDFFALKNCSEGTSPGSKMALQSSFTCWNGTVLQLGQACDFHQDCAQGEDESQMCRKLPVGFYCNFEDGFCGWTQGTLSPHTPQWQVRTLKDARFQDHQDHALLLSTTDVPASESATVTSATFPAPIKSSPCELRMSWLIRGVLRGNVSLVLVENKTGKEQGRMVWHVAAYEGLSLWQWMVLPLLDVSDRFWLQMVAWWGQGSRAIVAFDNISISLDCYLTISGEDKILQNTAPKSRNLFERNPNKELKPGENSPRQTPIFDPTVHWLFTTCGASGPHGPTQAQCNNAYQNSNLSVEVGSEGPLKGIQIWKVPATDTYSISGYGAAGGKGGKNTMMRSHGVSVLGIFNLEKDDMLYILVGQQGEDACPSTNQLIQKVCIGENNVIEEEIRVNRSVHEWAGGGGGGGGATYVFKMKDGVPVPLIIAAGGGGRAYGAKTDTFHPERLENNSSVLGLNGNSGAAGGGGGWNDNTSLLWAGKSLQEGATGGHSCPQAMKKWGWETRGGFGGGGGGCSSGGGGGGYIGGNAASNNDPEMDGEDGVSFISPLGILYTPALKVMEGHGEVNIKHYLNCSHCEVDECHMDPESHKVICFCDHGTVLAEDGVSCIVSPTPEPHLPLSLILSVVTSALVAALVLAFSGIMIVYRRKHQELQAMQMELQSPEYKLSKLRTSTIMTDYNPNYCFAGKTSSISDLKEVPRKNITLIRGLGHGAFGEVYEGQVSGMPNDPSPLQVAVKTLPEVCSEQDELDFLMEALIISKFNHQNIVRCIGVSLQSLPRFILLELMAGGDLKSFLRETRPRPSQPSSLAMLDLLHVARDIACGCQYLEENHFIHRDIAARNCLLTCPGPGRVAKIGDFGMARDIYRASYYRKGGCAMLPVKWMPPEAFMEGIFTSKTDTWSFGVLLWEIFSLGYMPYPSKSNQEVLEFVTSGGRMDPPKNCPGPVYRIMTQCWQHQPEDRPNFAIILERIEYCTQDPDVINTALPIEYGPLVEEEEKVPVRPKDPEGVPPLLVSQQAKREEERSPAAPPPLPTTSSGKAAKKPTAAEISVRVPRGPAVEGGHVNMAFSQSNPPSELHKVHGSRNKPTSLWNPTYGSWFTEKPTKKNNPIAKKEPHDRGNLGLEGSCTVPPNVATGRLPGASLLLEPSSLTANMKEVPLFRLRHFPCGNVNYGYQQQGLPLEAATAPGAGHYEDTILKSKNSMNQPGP
Quantity Measured: Ki (nM)
Note: unit nM is implicit; provide only the numeric part.

Q: Ki for CN1CCN(CCc2ccc(NC(=O)c3cc(-c4ccc5c(c4)OCO5)cnc3O)cc2)CC1 ?
Ans: 200

====

pIC50: −log10 of the molar value.
Proto-oncogene tyrosine-protein kinase Src (Homo sapiens): reported pIC50 for various compounds.
Sequence (P12931 2-536 limits assumed): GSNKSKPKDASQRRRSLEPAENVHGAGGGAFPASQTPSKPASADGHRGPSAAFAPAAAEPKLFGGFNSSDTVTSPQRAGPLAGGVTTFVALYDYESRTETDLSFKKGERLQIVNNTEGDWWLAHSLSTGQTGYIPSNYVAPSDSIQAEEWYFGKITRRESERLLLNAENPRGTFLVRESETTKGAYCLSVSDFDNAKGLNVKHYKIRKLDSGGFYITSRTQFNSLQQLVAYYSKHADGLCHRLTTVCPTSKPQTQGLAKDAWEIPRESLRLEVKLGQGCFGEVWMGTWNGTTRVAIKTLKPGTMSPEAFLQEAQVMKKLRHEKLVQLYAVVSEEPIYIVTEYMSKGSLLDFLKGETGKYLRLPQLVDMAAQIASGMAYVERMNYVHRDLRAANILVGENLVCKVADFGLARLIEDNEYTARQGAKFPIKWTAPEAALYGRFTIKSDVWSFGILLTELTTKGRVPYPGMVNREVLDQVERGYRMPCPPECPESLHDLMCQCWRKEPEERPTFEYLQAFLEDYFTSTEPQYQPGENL

For orientation, consider the following solved cases.
INSERT INTO results (item_smiles, reading) VALUES
  ('CN1CCN(Cc2ccc(NC(=O)c3cc(-c4ccc5c(c4)OCO5)cnc3O)cc2)CC1', '< 4.70'),
  ('CN1CCN(c2ccc(NC(=O)c3cc(-c4ccc5c(c4)OCO5)c[nH]c3=O)cc2)CC1', '< 4.70');

Now for a further compound.
Q: I'm curious: which pIC50 was measured for CN1CCN(CCc2ccc(NC(=O)c3cc(-c4ccc5c(c4)OCO5)cnc3O)cc2)CC1 tested on Proto-oncogene tyrosine-protein kinase Src (Homo sapiens)?
Ans: < 4.70

These entries and their values trace back to ChEMBL document CHEMBL1149386.
